// values below are reported fiber score / MBP score
Test system: E18 rat cortical neuron-glia co-culture
assay.notes: fiber score / MBP score (myelination specific beyond OL differentiation) (ratio); higher = more myelination-specific MBP alignment
condition.context: 1 µM; treatment time: 8 days (DIV5-DIV13)
Counter-ions that a name gives are not always drawn.
API note: the answer field is a bare number with no unit suffix.

Example results:
> print(dat)
                                   molecule        quantity.measured  endpoint.result
1             NC(=O)c1cnccn1 [Pyrazinamide]  fiber score / MBP score             0.64
2  CCC1=C(C)CN(C(=O)NCCc2ccc(S(=O)(=O)NC(=O)N[C@H]3CC[C@H](C)CC3)cc2)C1=O [Glimepiride]  fiber score / MBP score             1.06
3  CCc1cccc2c3c([nH]c12)C(CC)(CC(=O)O)OCC3 (centres undefined) [Etodolac]  fiber score / MBP score            0.706
4  CC(C)(C)NC(=O)[C@H]1CC[C@H]2[C@@H]3CC[C@H]4NC(=O)C=C[C@]4(C)[C@H]3CC[C@]12C [Finasteride]  fiber score / MBP score              0.7
5  COC1=CC(=O)C[C@@H](C)[C@]12Oc1c(Cl)c(OC)cc(OC)c1C2=O [Griseofulvin]  fiber score / MBP score            0.759
6  O=[N+]([O-])c1cccc2cn[nH]c12 [7-Nitroindazole]  fiber score / MBP score            0.691
7  CC1CCN(CCCC(=O)c2ccc(F)cc2)CC1 [Melperone hydrochloride]  fiber score / MBP score            0.816
8  C=C1/C(=C\C=C2/CCC[C@]3(C)[C@@H]([C@H](C)CCCC(C)(C)O)CC[C@@H]23)C[C@@H](O)C[C@@H]1O [Calcitriol]  fiber score / MBP score            0.737

I would be grateful if you could share the reported fiber score / MBP score for O=C(O)CCc1nc(-c2ccccc2)c(-c2ccccc2)o1 [Oxaprozin] . 0.677

Which fiber score / MBP score is reported for this molecule? c1ccc(-c2ccc(C(c3ccccc3)n3ccnc3)cc2)cc1 (centres undefined) [Bifonazole] 0.241

Please report the recorded fiber score / MBP score for O=c1n(CCCN2CCN(c3cccc(Cl)c3)CC2)nc2ccccn12 [Trazodone] . 0.819

# input molecule: COc1ccc(C(=O)NCc2ccc(OCCN(C)C)cc2)cc1OC [Itopride] ; wanted: its fiber score / MBP score 0.63

Entry Nc1ncn([C@@H]2O[C@H](CO)[C@@H](O)[C@H]2O)c(=O)n1 [Azacitidine] has what fiber score / MBP score? 0.686

For CCCCNc1cc(C(=O)O)cc(S(N)(=O)=O)c1Oc1ccccc1 [Bumetanide] , what is its reported fiber score / MBP score? 0.846

====

Tested on: E18 rat cortical neuron-glia co-culture
assay.notes: fiber score / MBP score (myelination specific beyond OL differentiation) (ratio); higher = more myelination-specific MBP alignment
condition.context: 5 µM; treatment time: 8 days (DIV5-DIV13)
fiber score / MBP score values for the compounds below.
Just the number, please, no unit after it.

> print(dat)
                                 compound        quantity.measured  endpoint.result
1       CNCC[C@H](Oc1cccc2ccccc12)c1cccs1  fiber score / MBP score            0.881
2            NC(=O)c1cccnc1 [Niacinamide]  fiber score / MBP score            0.901
3  CCCN[C@H]1CCc2nc(N)sc2C1 [Pramipexole]  fiber score / MBP score            0.903

Look at this compound and give its reported fiber score / MBP score. `Cc1onc(-c2ccccc2)c1C(=O)N[C@@H]1C(=O)N2[C@@H]1SC(C)(C)[C@@H]2C(=O)O` 0.897

If you can, please state the reported fiber score / MBP score value of CC(COc1ccccc1)N(CCCl)Cc1ccccc1 (stereo not given) . 0.918

====

System: E18 rat cortical neuron-glia co-culture
assay.notes: myelination (MBP fiber length per Olig2+ nucleus), % of 1 µM DAPT response (DMSO = 0) (% of DAPT); higher = more myelination, active = 50 or more
condition.context: 5 µM; treatment time: 8 days (DIV5-DIV13)
quantity.measured: myelination

Consider the following illustrative entries.
compound	target.under.test	endpoint.result
CCOC(=O)[C@H](CCc1ccccc1)N[C@@H](C)C(=O)N1CCC[C@H]1C(=O)O	E18 rat cortical neuron-glia co-culture	-27.5 (inactive)
C[C@@H]1C[C@H]2[C@@H]3CCC4=CC(=O)C=C[C@]4(C)[C@@]3(F)[C@@H](O)C[C@]2(C)[C@H]1C(=O)CO	E18 rat cortical neuron-glia co-culture	-8.43 (inactive)
Cc1ncc([N+](=O)[O-])n1CC(C)O (centres undefined)	E18 rat cortical neuron-glia co-culture	-18.7 (inactive)
CC(C)Cc1ccc(C(C)C(=O)O)cc1 (centres undefined)	E18 rat cortical neuron-glia co-culture	-2.85 (inactive)
CC(C(=O)O)c1cccc(C(=O)c2ccccc2)c1 (centres undefined)	E18 rat cortical neuron-glia co-culture	-3.55 (inactive)
C[C@H]1O[C@H](O[C@H]2[C@H](O)[C@@H](O)[C@@H](O[C@H]3[C@H](O)[C@@H](O)C(O)O[C@@H]3CO)O[C@@H]2CO)[C@H](O)[C@@H](O)[C@@H]1N[C@H]1C=C(CO)[C@@H](O)[C@H](O)[C@H]1O (some centres undefined)	E18 rat cortical neuron-glia co-culture	-6.72 (inactive)
c1ccc2c(CC3=NCCN3)cccc2c1	E18 rat cortical neuron-glia co-culture	14 (inactive)
Cc1ncc([N+](=O)[O-])n1CC(O)CCl (centres undefined)	E18 rat cortical neuron-glia co-culture	-1.4 (inactive)

Field: myelination (E18 rat cortical neuron-glia co-culture). Entry: NS(=O)(=O)c1cc2c(cc1C(F)(F)F)NC(Cc1ccccc1)NS2(=O)=O (centres undefined) [Bendroflumethiazide] -27.7 (inactive)

Please tell me: myelination of CSc1ccc2c(c1)N(CCC1CCCCN1C)c1ccccc1S2 (centres undefined) , system E18 rat cortical neuron-glia co-culture? < -29.5 (inactive)

Give the reported myelination for `CC(=O)S[C@@H]1CC2=CC(=O)CC[C@]2(C)[C@H]2CC[C@@]3(C)[C@@H](CC[C@@]34CCC(=O)O4)[C@H]12` (system: E18 rat cortical neuron-glia co-culture). 6.33 (inactive)

Request: myelination, test system E18 rat cortical neuron-glia co-culture, entry NC(=O)N1c2ccccc2CC(=O)c2ccccc21 [Oxcarbazepine] 196

What is its myelination for E18 rat cortical neuron-glia co-culture? Entry: c1ccc2c(c1)CCCC2C1=NCCN1 (centres undefined) -2.07 (inactive)

Kindly state the measured myelination obtained for `CN1[C@@H]2CC[C@H]1C[C@@H](OC(=O)c1c[nH]c3ccccc13)C2` with E18 rat cortical neuron-glia co-culture. -53.9 (inactive)

Please provide the recorded myelination for CN1CCc2cc(Cl)c(O)cc2C(c2ccccc2)C1 (centres undefined) , tested on E18 rat cortical neuron-glia co-culture. -9.82 (inactive)

Kindly state the measured myelination obtained for CCN1CCC[C@H]1CNC(=O)c1c(O)c(Cl)cc(Cl)c1OC [Raclopride] with E18 rat cortical neuron-glia co-culture. -30.6 (inactive)

====

System: E18 rat cortical neuron-glia co-culture
assay.notes: fiber score / MBP score (myelination specific beyond OL differentiation) (ratio); higher = more myelination-specific MBP alignment
condition.context: 5 µM; treatment time: 8 days (DIV5-DIV13)
quantity.measured: fiber score / MBP score
Simply state the number, no unit and no words.

For orientation, consider the following solved cases.
molecule	fiber score / MBP score
CN1CCN(c2nc3cc(C(F)(F)F)ccc3n3cccc23)CC1	0.682
CN1CCC(=C2c3ccccc3C=Cc3ccccc32)CC1	0.686
OCc1cc(C(O)CNCCCCCCOCCCCc2ccccc2)ccc1O (configuration not stated)	0.0809
Nc1nc(=O)[nH]cc1F	0.855
COc1ccc(-c2oc3c(CC=C(C)C)c(O[C@@H]4O[C@H](CO)[C@@H](O)[C@H](O)[C@H]4O)cc(O)c3c(=O)c2O[C@@H]2O[C@@H](C)[C@H](O)[C@@H](O)[C@H]2O)cc1	0.958

Entry `CC(=O)O[C@@]12CO[C@@H]1C[C@H](O)[C@@]1(C)C(=O)[C@H](O)C3=C(C)[C@@H](OC(=O)[C@H](O)[C@@H](NC(=O)OC(C)(C)C)c4ccccc4)C[C@@](O)([C@@H](OC(=O)c4ccccc4)[C@H]21)C3(C)C` : reported fiber score / MBP score = ? 1.62

Bench note: what fiber score / MBP score did O=C1CCC(N2C(=O)c3ccccc3C2=O)C(=O)N1 (configuration not stated) [Thalidomide] show? 1.14

====

System: E18 rat cortical neuron-glia co-culture
assay.notes: fiber score / MBP score (myelination specific beyond OL differentiation) (ratio); higher = more myelination-specific MBP alignment
condition.context: 1 µM; treatment time: 8 days (DIV5-DIV13)
Items are presented alongside their recorded fiber score / MBP score.
The answer should be a number; do not append a unit.

Use these answered entries as a reference point.
> print(dat)
                                   molecule        quantity.measured  endpoint.result
1    Clc1ccccc1CN1CCc2sccc2C1 [Ticlopidine]  fiber score / MBP score            0.477
2  Fc1ccc([C@@H]2CCNC[C@H]2COc2ccc3c(c2)OCO3)cc1 [Paroxetine]  fiber score / MBP score            0.805
3  O=C1C(CC[S+]([O-])c2ccccc2)C(=O)N(c2ccccc2)N1c1ccccc1 (stereo not drawn) [Sulfinpyrazone]  fiber score / MBP score             1.18

Requested field: fiber score / MBP score. Item: C[C@H](N[C@@H](CCc1ccccc1)C(=O)O)C(=O)N1CCC[C@H]1C(=O)O [Enalaprilat] 0.936

Given the entry CN1CCC(=C2c3ccccc3C=Cc3ccccc32)CC1 [Cyproheptadine] , report its measured fiber score / MBP score. 0.58

What does the record list as fiber score / MBP score for O=c1cnn([C@@H]2O[C@H](CO)[C@@H](O)[C@H]2O)c(=O)[nH]1 [Azauridine] ? 0.944

For COc1ccc(/C=C/C(=O)Nc2ccccc2C(=O)O)cc1OC [Tranilast] , what is its reported fiber score / MBP score? 0.857

Given Nc1nc(=O)c2nc(CNc3ccc(C(=O)N[C@@H](CCC(=O)O)C(=O)O)cc3)cnc2[nH]1 [Folic acid] , state its recorded fiber score / MBP score. 0.994

Using the record for N[C@@H](C(=O)N[C@@H]1C(=O)N2C(C(=O)O)=C(Cl)CS[C@H]12)c1ccccc1 [Cefaclor] , report its fiber score / MBP score. 0.944

// fiber score / MBP score lookup, key: C[C@@H]1C[C@H]2[C@@H]3CCC4=CC(=O)C=C[C@]4(C)[C@@]3(F)[C@@H](O)C[C@]2(C)[C@H]1C(=O)CO [Desoximetasone] 0.95
